System: MDA-MB-435
Experiment: NCI tumour cell line growth inhibition, 48 h
Activity calls are given as the source filed them. Rule as the data show it: active = GI50 up to about 1.1 µM and inactive = higher.
Classes used: 1 for active, 0 for inactive

>  <Compound>
CN(C)CCCCN1c2ccccc2Sc2ccc(N=[N+]=[N-])cc21

>  <Label class>
0

$$$$
>  <Compound>
COc1ccccc1NCC(=O)Nn1c(C)nc2ccc(S(=O)(=O)Nc3ccccc3OC)cc2c1=O

>  <Label class>
0

$$$$
>  <Compound>
COc1cc(C)c2c(=O)c3ccccc3n(C)c2c1

>  <Label class>
0

$$$$
>  <Compound>
Cc1cccc(Nc2cn(COCc3ccccc3)c(=O)[nH]c2=O)c1

>  <Label class>
0

$$$$
>  <Compound>
C[N+](C)(N)c1nc(N)c(C#N)c(C#N)c1C#N

>  <Label class>
0

$$$$
>  <Compound>
Cn1nc(C(=O)N2CC(CCl)c3c2cc(N)c2ccccc32)cc1NC(=O)Nc1cc(C(=O)N2CC(CCl)c3c2cc(N)c2ccccc32)nn1C (stereo not given)

>  <Label class>
1

$$$$
>  <Compound>
COc1ccc2cc(-c3ccc(OC)c(OC)c3)c(=O)oc2c1

>  <Label class>
0

$$$$
>  <Compound>
CN(C)CCn1c(=O)c2ccc3c4c(nn3CCN(C)C)c3cc(O)ccc3n(c1=O)c24

>  <Label class>
1

$$$$
>  <Compound>
N#CC1Nc2ccccc2[C@@H](O)C1O (stereo not given in full)

>  <Label class>
0

$$$$
>  <Compound>
CC1(C)N=C(C2CCCN2C(=O)OCc2ccccc2)OC1=O (stereo not given)

>  <Label class>
0

$$$$
>  <Compound>
CCOc1cc2c(NCCCN(CCO)CCO)ncnc2c(OCC)c1OCC

>  <Label class>
0

$$$$
>  <Compound>
CCC(=O)NC(Nc1cc(C)on1)(C(F)(F)F)C(F)(F)F

>  <Label class>
0

$$$$
>  <Compound>
Cc1cccc2c(N)c3cccc(C(=O)NCC[N+](C)(C)Cc4ccccc4[N+](=O)[O-])c3nc12

>  <Label class>
0

$$$$
>  <Compound>
Cn1c(=O)c2c(nc(N/N=C3/SCC(=O)N3Cc3ccccc3)n2C)n(C)c1=O

>  <Label class>
0

$$$$
>  <Compound>
CCN1C(=O)/C(=C2\SC(c3ccccc3)(c3ccccc3)c3ccccc32)SC1=S

>  <Label class>
0

$$$$

====

GI50 reference
System: IGROV-1
Assay: NCI tumour cell line growth inhibition, 48 h
Active and inactive are the calls of the source. Rule as the data show it: active = GI50 up to about 1.1 µM and inactive = higher.
Reported endpoint: GI50

>  <Molecule>
Cc1ccc(S(=O)(=O)N2CCC3(C(/C=C/c4ccccc4)=Nc4ccccc43)C2c2ccccc2)cc1 (stereo unspecified)

>  <Assay result>
1.41 µM (inactive)

$$$$
>  <Molecule>
COc1ccccc1NCC(=O)Nn1c(C)nc2ccc(S(=O)(=O)Nc3ccccc3OC)cc2c1=O

>  <Assay result>
42.7 µM (inactive)

$$$$
>  <Molecule>
CS(=O)(=O)c1ccc(/N=C/C=C/Nc2ccc(S(C)(=O)=O)cc2)cc1

>  <Assay result>
> 100 µM (inactive)

$$$$
>  <Molecule>
CCSc1ncnc2c(C3OC(CO)C(O)C3O)nsc12 (stereo unspecified)

>  <Assay result>
> 100 µM (inactive)

$$$$
>  <Molecule>
CN(c1nc(=[N+](C)C)ss1)C1CCCCC1

>  <Assay result>
> 100 µM (inactive)

$$$$
>  <Molecule>
COc1ccn(CC(=O)c2cc3ccccc3[nH]2)c(=O)n1

>  <Assay result>
> 100 µM (inactive)

$$$$

Values from ChEMBL document CHEMBL1201862
